# TARGET OF ASSAY: panel of 255 wild-type kinases (Homo sapiens)
# Sequence (P00519 whole entry): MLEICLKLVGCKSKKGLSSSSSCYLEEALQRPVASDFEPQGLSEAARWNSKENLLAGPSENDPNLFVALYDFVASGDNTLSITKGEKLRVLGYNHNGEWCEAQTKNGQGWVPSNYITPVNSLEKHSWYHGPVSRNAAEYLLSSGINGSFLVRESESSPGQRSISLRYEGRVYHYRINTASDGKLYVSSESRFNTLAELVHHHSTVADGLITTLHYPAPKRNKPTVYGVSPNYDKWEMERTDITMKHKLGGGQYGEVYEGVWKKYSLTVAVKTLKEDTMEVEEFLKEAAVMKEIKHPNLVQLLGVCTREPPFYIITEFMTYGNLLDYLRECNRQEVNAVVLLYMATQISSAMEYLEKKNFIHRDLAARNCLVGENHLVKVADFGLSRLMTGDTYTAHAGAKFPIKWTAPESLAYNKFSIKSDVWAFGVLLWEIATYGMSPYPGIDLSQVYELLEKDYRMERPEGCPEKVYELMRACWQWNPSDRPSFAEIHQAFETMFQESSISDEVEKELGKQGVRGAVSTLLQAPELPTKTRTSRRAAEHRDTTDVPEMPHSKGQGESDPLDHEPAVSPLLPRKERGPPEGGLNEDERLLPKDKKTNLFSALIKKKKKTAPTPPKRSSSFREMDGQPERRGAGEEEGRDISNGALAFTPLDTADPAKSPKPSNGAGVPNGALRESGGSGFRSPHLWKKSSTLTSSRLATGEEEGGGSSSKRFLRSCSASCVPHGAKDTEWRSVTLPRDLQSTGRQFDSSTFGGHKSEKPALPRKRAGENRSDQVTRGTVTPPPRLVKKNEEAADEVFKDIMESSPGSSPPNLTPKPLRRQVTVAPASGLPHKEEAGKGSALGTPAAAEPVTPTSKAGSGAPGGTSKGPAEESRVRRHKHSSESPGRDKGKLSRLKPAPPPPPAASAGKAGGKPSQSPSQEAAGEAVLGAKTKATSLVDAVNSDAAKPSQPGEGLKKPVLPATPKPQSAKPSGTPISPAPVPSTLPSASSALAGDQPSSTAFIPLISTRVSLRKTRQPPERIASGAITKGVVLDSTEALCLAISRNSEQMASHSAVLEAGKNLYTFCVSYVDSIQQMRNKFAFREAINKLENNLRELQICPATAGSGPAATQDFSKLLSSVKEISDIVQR
# METHOD DESCRIPTION: Kinase panel profiling at 1 µmol/L (MSA or IMAP), percentage inhibition
# Format: biochemical
# MEASUREMENT PARAMETERS: ABL kinase assay; 1 µmol/L single concentration; read-out: %-inhibition ABL
Provide the recorded inhibition at 1 µM for the entries that follow.
Give bare numbers, in %.

Consider the following illustrative entries.
CHEMICAL STRING	TARGET OF ASSAY	inhibition at 1 µM / %
C[C@H]1Oc2cc(cnc2N)-c2c(nn(C)c2C#N)CN(C)C(=O)c2ccc(F)cc21	panel of 255 wild-type kinases (Homo sapiens)	-2.34
Cn1cnc2c(F)c(Nc3ccc(Br)cc3F)c(C(=O)NOCCO)cc21	panel of 255 wild-type kinases (Homo sapiens)	-1.53

Query: What value of measured inhibition at 1 µM is listed for O=C(Nc1cnn2ccc(N3CCC[C@@H]3c3cc(F)ccc3F)nc12)N1CC[C@H](O)C1 ?
Response: -7
